experiment: Inhibition of P-gp (unknown origin) expressed in MES-SA/DX5 cells assessed as cell growth inhibition after 3 days in presence of 200 nM paclitaxel by MTT assay
Measured attribute: EC50 (nM)
Quick reminder: number only, in nM, skip the unit.

-- ask Need EC50, item `COc1cc2c(cc1OC)CN(CCc1ccc(-n3nnc(-c4cc(OC)c(OC)cc4NC(=O)c4cc(=O)c5ccccc5o4)n3)cc1)CC2`
-- reply 13

-- ask Subsequent entry: `COc1cc2c(cc1OC)CN(CCc1ccc(NC(=O)c3cc(OC)c(OC)cc3NC(=O)c3cnc4ccccc4c3)cc1)CC2`
-- reply 16

-- ask And for `COc1cc2c(cc1OC)CN(CCc1ccc(-n3nnc(-c4cc(OC)c(OC)cc4NC(=O)c4cnc5ccccc5c4)n3)cc1)CC2` ?
-- reply 75

---

experiment: Inhibition of P-gp (unknown origin) expressed in MCF7 cells assessed as increase in reversal of resistance to paclitaxel-induced cytotoxicity by measuring reduction in paclitaxel EC50 at 50 nM incubated for 72 hrs in presence of paclitaxel by SRB assay (Rvb = 11.5 nM)
Mark TRUE only when EC50 stays strictly below 8 nM. Values equal to the cut-off are FALSE.

-- ask Lab log: compare recorded EC50 with 8 nM; is it strictly lower for `COc1cc2c(cc1OC)CN(CCc1ccc(-n3nnc(-c4cc(OC)c(OC)cc4NC(=O)c4cnccn4)n3)cc1)CC2` ?
-- reply FALSE

-- ask Follow-up item: `COc1cc2c(cc1OC)CN(CCc1ccc(-n3nnc(-c4cc(OC)c(OC)cc4NC(=O)c4coc5ccccc5c4=O)n3)cc1)CC2`
-- reply FALSE

-- ask // same read-out, input: `COc1cc2c(cc1OC)CN(CCc1ccc(-n3nnc(-c4cc(OC)c(OC)cc4NC(=O)c4cncc5ccccc45)n3)cc1)CC2`
-- reply FALSE

-- ask Moving on to `COc1cc2c(cc1OC)CN(CCc1ccc(-n3nnc(-c4cc(OC)c(OC)cc4NC(=O)c4cccc5cccnc45)n3)cc1)CC2`
-- reply TRUE

-- ask Consider next the compound `COc1cc2c(cc1OC)CN(CCc1ccc(-n3nnc(-c4cc(OC)c(OC)cc4NC(=O)c4ccccc4)n3)cc1)CC2` in the same way.
-- reply TRUE

-- ask Field entry: `COc1cc2c(cc1OC)CN(CCc1ccc(-n3nnc(-c4cc(OC)c(OC)cc4NC(=O)c4cc(=O)c5cc(C)ccc5o4)n3)cc1)CC2`
-- reply TRUE

-- ask Input `COc1cc2c(cc1OC)CN(CCc1ccc(-n3nnc(-c4cc(OC)c(OC)cc4NC(=O)c4ccc5ccccc5n4)n3)cc1)CC2`
-- reply FALSE

-- ask Next entry: `COc1cc2c(cc1OC)CN(CCc1ccc(-n3nnc(-c4cc(OC)c(OC)cc4NC(=O)c4cccnc4)n3)cc1)CC2`
-- reply FALSE

-- ask Let us now turn to `COc1cc2c(cc1OC)CN(CCc1ccc(-n3nnc(-c4cc(OC)c(OC)cc4NC(=O)c4nccc5ccccc45)n3)cc1)CC2`
-- reply TRUE

-- ask Similarly, `COc1cc2c(cc1OC)CN(CCc1ccc(-n3nnc(-c4cc(OC)c(OC)cc4NC(=O)c4cc(=O)c5c(OC)cccc5o4)n3)cc1)CC2` ?
-- reply TRUE

-- ask Now try `COc1cc2c(cc1OC)CN(CCc1ccc(-n3nnc(-c4cc(OC)c(OC)cc4NC(=O)c4ccoc4)n3)cc1)CC2` .
-- reply FALSE

-- ask And `COc1cc2c(cc1OC)CN(CCc1ccc(-n3nnc(-c4cc(OC)c(OC)cc4NC(=O)c4cc5ccccc5cn4)n3)cc1)CC2` ?
-- reply FALSE

-- ask What about this compound? `COc1cc2c(cc1OC)CN(CCc1ccc(-n3nnc(-c4cc(OC)c(OC)cc4NC(=O)c4ccsc4)n3)cc1)CC2`
-- reply TRUE
